- Test system: SF-268 CNS
- experimentalProtocol: NCI-60 one-dose screen, 48 h
- assaySetup: 10 µM unless noted
Compounds without any hit were thinned out: in the full panel of roughly 83,000, 20% have a hit. The source made the active and inactive calls. Rule for the calls: active = growth percent below 10; inactive = the rest.
Possible outcomes: active, inactive

compound	answerLabel
C=C(C)[C@@H]1CC[C@]2(C=NCCCNCCCCNCCCN)CC[C@]3(C)[C@H](CC[C@@H]4[C@@]5(C)CCCNC(C)(C)[C@@H]5CC[C@]43C)[C@@H]12	inactive
Cn1c2ccccc2c2c3c(c4c5cccnc5[nH]c4c21)C(=O)N(O)C3=O	inactive
COc1ccc(OCC(CO)N2CCN(c3ccccc3)CC2)cc1 (centres undefined)	inactive
NCCn1cc(-c2nc(-c3c[nH]c4ncccc34)cs2)c2cc(Br)ccc21	inactive
O=C(NCN1C(=O)c2cccc3cccc(c23)C1=O)N1CCC(Cc2ccccc2)CC1	inactive
CC(=O)Nc1cc(F)cc(C(F)(F)F)c1Cl	inactive
CC(C)(C)n1cc(-c2ccnc(NCCCNS(=O)(=O)c3ccc(Cl)cc3)c2)c(-c2cccc(F)c2)n1	inactive
Nc1ncnc2nc(Br)[nH]c12	inactive
COc1ccc2c(c1)c(-c1nc(-c3cn(C)c4ncccc34)cs1)cn2CCCN1CCCCC1	inactive
CNC(=O)c1cc(Oc2ccc3nc(NC(=O)Nc4ccc(Cl)cc4)sc3c2)ccn1	inactive
CCOc1ccc(NC(=O)c2ccccc2-c2ccccc2C(=O)O)cc1	inactive
CN1CCN(c2nc(-c3cccc4ccccc34)nc3sc4c(c23)CCCCCC4)CC1	inactive
COc1ccc2c(c1)C(Br)=C(CCO)C2c1ccccc1 (centres undefined)	inactive
O=C1NC(c2ccc(Cl)c(Cl)c2)=C/C1=C\c1ccccc1	inactive
Nc1c2c(nc3ccc(Cl)cc13)CC(c1ccccc1)CC2=O (centres undefined)	inactive
Cn1c(=O)c2c(ncn2CC(=O)Nc2ccc(S(N)(=O)=O)cc2)n(C)c1=O	inactive
C=C(C)[C@@H]1CC[C@]2(C(=O)NNC(=O)c3cccnc3)CC[C@]3(C)[C@H](CC[C@@H]4[C@@]5(C)CCCNC(C)(C)[C@@H]5CC[C@]43C)[C@@H]12	inactive
CC/C=C\C[C@H]1CC=C2C(=O)C=C[C@@H]2CC=CCCCC(=O)O[C@@H](CCCCC)CC=C2C(=O)C=C[C@@H]2CC=CCCCC(=O)O[C@@H](CCCCC)CC=C2C(=O)C=C[C@@H]2CC=CCCCC(=O)O[C@@H](CCCCC)CC=C2C(=O)C=C[C@@H]2CC=CCCCC(=O)O1	inactive
Cc1cc(N(CCNc2ccnc3cc(Cl)ccc23)Cc2ccco2)nc(Cl)n1	inactive
COc1cc(C(=O)/C=C/c2cc(-c3ccc4c(c3)OCO4)n[nH]2)cc(OC)c1OC	active
CN(C)c1ccc(N)c2ccccc12	inactive
Cn1cc(-c2csc(-c3cn(C(=O)OC(C)(C)C)c4ccccc34)n2)c2cccnc21	inactive
O=C1CCCC=CC[C@H]2C=C(Cl)C(=O)C2=CC[C@H](CCCCC(F)(F)F)OC(=O)CCCC=CC[C@H]2C=C(Cl)C(=O)C2=CC[C@H](CCCCC(F)(F)F)OC(=O)CCCC=CC[C@H]2C=C(Cl)C(=O)C2=CC[C@H](CCCCC(F)(F)F)O1	inactive
O=[N+]([O-])c1cccc(/C=N\Nc2ccccc2)c1	inactive
CCN1CCN(C(=O)[C@]23CC[C@@H](C)[C@H](C)[C@H]2C2=CC[C@@H]4[C@@]5(C)C/C(=C/c6cccc(OC)c6OC)C(=O)C(C)(C)[C@@H]5CC[C@@]4(C)[C@]2(C)CC3)CC1	inactive
CC(C)C[C@@H](NC(=O)[C@@H](Cc1ccccc1)NC(=O)c1cnccn1)B1O[C@H]2[C@H](O)[C@@H](C(=O)NCCCC[C@@H]3NC(=O)[C@@H](Cc4ccccc4)NC(=O)[C@H](CC(=O)O)NC(=O)CNC(=O)[C@H](CCCN=C(N)N)NC3=O)O[C@@H](CN)[C@H]2O1	active
Cc1cc2nc3c4cc(N)ccc4n(CCN(C)C)c3nc2cc1C	inactive
COC(=O)[C@]12CC[C@@H](C)[C@H](C)[C@@H]1C1=CC[C@@H]3[C@@](C)(CC#N)C4=C(C[C@@]3(C)[C@]1(C)CC2)OC[C@]4(C)C=O	active
C=COCCCCCCCCCCCCCCCCCC	inactive
COc1ccc(/C=C/C(=O)c2ccc([N+](=O)[O-])cc2)cc1	inactive
CC(=O)O[C@H]1CC[C@@]2(C)C(=CC[C@@H]3[C@@H]2CC[C@]2(C)C(=O)N(O)C(=O)C[C@@H]32)C1	inactive
Clc1ccc(Cn2cc(-c3nc4ccc(Br)nc4n3Cc3ccc(Cl)cc3)c3cccnc32)cc1	inactive
c1ccc(C2Cc3ccccc3C2=NC2CCCCC2)cc1 (centres undefined)	inactive
CC(=O)Cc1nsc(NC(=O)c2ccoc2COc2ccccc2)n1	inactive
